Target: T1, TIGIT (human)
T1 chain: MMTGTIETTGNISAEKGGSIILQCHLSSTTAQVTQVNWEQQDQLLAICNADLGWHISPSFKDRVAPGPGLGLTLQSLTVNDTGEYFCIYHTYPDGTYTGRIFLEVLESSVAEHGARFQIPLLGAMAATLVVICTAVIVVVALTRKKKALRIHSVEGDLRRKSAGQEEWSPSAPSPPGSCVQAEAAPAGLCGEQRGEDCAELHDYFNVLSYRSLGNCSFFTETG
Assay: cell-based or functional assay
measure name: IL-2 luciferase reporter, Normalized Fold Change from CD155-ECD (fold)
Write it as a number; the unit fold goes unstated.

Task: Provide IL-2 luciferase reporter, Normalized Fold Change from CD155-ECD value for the following binder: variant CD155 IgV-Fc P18T, S52A, V57A, Q60R, Q62K, S65C, L79P, F91T, N100Y, T107M (Fc fusion) WPPPGTGDVVVQAPTQVTGFLGDSVTLPCYLQVPNMEVTHVSQLTWARHGEAGSMAAFHRTKGPCYSESKRLEFVAARPGAELRNASLRMTGLRVEDEGYYTCLFVMFPQGSRSVDIWLRVLGSGGGGSEPKSSDKTHTCPPCPAPEAEGAPSVFLFPPKPKDTLMISRTPEVTCVVVDVSHEDPEVKFNWYVDGVEVHNAKTKPREEQYNSTYRVVSVLTVLHQDWLNGKEYKCKVSNKALPAPIEKTISKAKGQPREPQVYTLPPSRDELTKNQVSLTCLVKGFYPSDIAVEWESNGQPENNYKTTPPVLDSDGSFFLYSKLTVDKSRWQQGNVFSCSVMHEALHNHYTQKSLSLSPGK
Result: 2.1

Data credit: patent US20230381229A1
